assay.explanation: Human hepatocyte stability
Format: in vitro ADME
condition: human hepatocytes
measured.endpoint: hepatocyte CLint (µL/min/1e6 cells)
Just the number please, in µL/min/1e6 cells, no unit attached.

1. COc1cc2ncnc(Nc3cccc(O)c3C)c2cc1OC; 28.4
2. COc1cc2ncnc(Nc3cccc(O)c3O)c2cc1OC; 95.5
3. COc1cc2ncnc(Nc3cc(O)c(C)cc3F)c2cc1OC; 91.9
4. COc1cc2ncnc(Nc3c(F)ccc(O)c3C)c2cc1OC; 20.9
5. COc1cc2ncnc(Nc3cccc(O)c3Br)c2cc1OC; 157
6. COc1cc2ncnc(Nc3c(F)ccc(O)c3Cl)c2cc1OC; 66.7

hepatocyte CLint for COc1cc2ncnc(Nc3cccc(O)c3)c2cc1OC is 76.9

hepatocyte CLint for COc1cc2ncnc(Nc3c(F)ccc(O)c3F)c2cc1OC is 68.9

hepatocyte CLint for COc1cc2ncnc(Nc3cccc(O)c3Cl)c2cc1OC is 174

hepatocyte CLint for COc1cc2ncnc(Nc3cc(F)cc(O)c3C)c2cc1OC is 54.8

hepatocyte CLint for COc1cc2ncnc(Nc3c(Cl)ccc(O)c3F)c2cc1OC is 93.3

====

assay.explanation: in vitro
condition: mouse, non-modified (wild-type, non RET-driven) BaF3 cells
measured.endpoint: IC50 at 48 h

Answered examples (4):
1) COc1cc2ncnc(Nc3cc(O)c(C)cc3F)c2cc1OC; > 1 µM
2) COc1cc2ncnc(Nc3c(F)ccc(O)c3F)c2cc1OC; > 10 µM
3) COc1cc2ncnc(Nc3cc(F)cc(O)c3C)c2cc1OC; > 10 µM
4) COc1cc2ncnc(Nc3cccc(O)c3Br)c2cc1OC; > 10 µM

IC50 at 48 h for COc1cc2ncnc(Nc3cccc(O)c3)c2cc1OC is > 10 µM

IC50 at 48 h for COc1cc2ncnc(Nc3cccc(O)c3O)c2cc1OC is > 10 µM

====

This section lists IC50 readings for KDR (Homo sapiens, UniProt P35968).
Just the number please, in nM, no unit attached.

Answered examples (2):
1) COc1cc2ncnc(Nc3c(F)ccc(O)c3F)c2cc1OC [Compound 33]; 69
2) COc1cc2ncnc(Oc3cccc(O)c3)c2cc1OC [Compound 42]; 150

Record COc1cc2ncnc(Nc3ccc(Cl)c(O)c3)c2cc1OC [Compound 21] / KDR (Homo sapiens, UniProt P35968), IC50 recorded as 58

Source listed as paper PMC4896931.
